# Experimental target: UniProt:P20618
# Sequence (whole entry): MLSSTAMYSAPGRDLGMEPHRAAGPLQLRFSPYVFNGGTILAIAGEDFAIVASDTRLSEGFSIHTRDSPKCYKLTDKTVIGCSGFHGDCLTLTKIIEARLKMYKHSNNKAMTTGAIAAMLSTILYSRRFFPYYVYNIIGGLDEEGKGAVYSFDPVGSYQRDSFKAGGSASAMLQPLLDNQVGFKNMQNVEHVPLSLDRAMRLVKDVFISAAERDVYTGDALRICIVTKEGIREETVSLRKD
# Procedure text: Displacement of fluorescent labeled MV151 from 26S proteasome beta 1 in human HEK293 cell lysate assessed as residual activity at 100 uM after 1 hr by SDS-PAGE
# Format: cell-free
Property measured: Activity (%)

Example compounds with recorded Activity:
Given smiles: CC(C)C[C@H](NC(=O)[C@H](Cc1ccccc1)NC(=O)[C@H](Cc1c(F)c(F)c(F)c(F)c1F)NC(=O)[C@H](Cc1ccccc1)N=[N+]=[N-])C(=O)[C@@]1(C)CO1
Measure unit: %
Activity: 87.6

Given smiles: CC(C)C[C@H](NC(=O)[C@H](Cc1cc(C(F)(F)F)cc(C(F)(F)F)c1)NC(=O)[C@H](Cc1cc(C(F)(F)F)cc(C(F)(F)F)c1)NC(=O)[C@H](Cc1ccccc1)N=[N+]=[N-])C(=O)[C@@]1(C)CO1
Measure unit: %
Activity: 100

Given smiles: CC(C)C[C@H](NC(=O)[C@H](Cc1ccccc1)NC(=O)[C@H](Cc1cc(C(F)(F)F)cc(C(F)(F)F)c1)NC(=O)[C@H](Cc1ccccc1)N=[N+]=[N-])C(=O)[C@@]1(C)CO1
Measure unit: %
Activity: 80

Given smiles: CC(C)C[C@H](NC(=O)[C@H](Cc1c(F)c(F)c(F)c(F)c1F)NC(=O)[C@H](Cc1c(F)c(F)c(F)c(F)c1F)NC(=O)[C@H](Cc1ccccc1)N=[N+]=[N-])C(=O)[C@@]1(C)CO1
Measure unit: %
Activity: 115

[1] CC(C)C[C@H](NC(=O)[C@H](Cc1ccccc1)NC(=O)[C@H](Cc1ccccc1)NC(=O)[C@H](Cc1ccccc1)N=[N+]=[N-])C(=O)[C@@]1(C)CO1
[2] CC(C)C[C@H](NC(=O)[C@H](Cc1cc(C(F)(F)F)cc(C(F)(F)F)c1)NC(=O)[C@H](Cc1ccccc1)NC(=O)[C@H](Cc1ccccc1)N=[N+]=[N-])C(=O)[C@@]1(C)CO1
[3] CC(C)C[C@H](NC(=O)[C@H](Cc1c(F)c(F)c(F)c(F)c1F)NC(=O)[C@H](Cc1ccccc1)NC(=O)[C@H](Cc1ccccc1)N=[N+]=[N-])C(=O)[C@@]1(C)CO1
# rank by Activity, ascending (min first) Write the labels in rank order as requested. 1, 3, 2

====

# Experimental target: Proteasome subunit beta type-5 (Homo sapiens)
# Procedure text: Inhibition of 26S proteasome beta 5 in human HEK293 cell lysate assessed as residual activity at 0.5 uM after 1 hr
Property measured: Activity (%)

Use the examples below as a reference point.
Compound: CC(C)C[C@H](NC(=O)[C@H](Cc1ccccc1)NC(=O)[C@H](Cc1c(F)c(F)c(F)c(F)c1F)NC(=O)[C@H](Cc1ccccc1)N=[N+]=[N-])C(=O)[C@@]1(C)CO1
Property measured: Activity
Measure unit: %
Measured result: 29.7
--
Compound: CC(C)C[C@H](NC(=O)[C@H](Cc1cc(C(F)(F)F)cc(C(F)(F)F)c1)NC(=O)[C@H](Cc1ccccc1)NC(=O)[C@H](Cc1ccccc1)N=[N+]=[N-])C(=O)[C@@]1(C)CO1
Property measured: Activity
Measure unit: %
Measured result: 19.7

[I] CC(C)C[C@H](NC(=O)[C@H](Cc1ccccc1)NC(=O)[C@H](Cc1cc(C(F)(F)F)cc(C(F)(F)F)c1)NC(=O)[C@H](Cc1ccccc1)N=[N+]=[N-])C(=O)[C@@]1(C)CO1
[II] CC(C)C[C@H](NC(=O)[C@H](Cc1cc(C(F)(F)F)cc(C(F)(F)F)c1)NC(=O)c1cnccn1)B1OC2C[C@@H]3C[C@@H](C3(C)C)[C@]2(C)O1 (some centres undefined)
Hi, I'm comparing I with II and wondering which one has the bigger number for Activity. Any idea? Pick one and reply with its label. I

====

# Experimental target: Proteasome Macropain subunit MB1 (Homo sapiens) (UniProt P28074)
# Sequence (P28074 whole entry): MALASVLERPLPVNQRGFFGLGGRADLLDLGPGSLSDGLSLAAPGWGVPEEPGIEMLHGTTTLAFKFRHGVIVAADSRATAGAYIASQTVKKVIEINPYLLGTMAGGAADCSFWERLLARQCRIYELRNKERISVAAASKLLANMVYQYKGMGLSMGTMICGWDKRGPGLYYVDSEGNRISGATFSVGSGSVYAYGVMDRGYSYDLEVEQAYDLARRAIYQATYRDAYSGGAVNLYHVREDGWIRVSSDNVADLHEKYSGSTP
# Procedure text: Displacement of fluorescent labeled MV151 from 26S proteasome beta 5 in human HEK293 cell lysate assessed as residual activity at 1 uM after 1 hr by SDS-PAGE
# Type: cell-free
Property measured: Activity (%)

[P] CC(C)C[C@H](NC(=O)[C@H](Cc1ccccc1)NC(=O)[C@H](Cc1ccccc1)NC(=O)[C@H](Cc1ccccc1)N=[N+]=[N-])C(=O)[C@@]1(C)CO1
[Q] CC(C)C[C@H](NC(=O)[C@H](Cc1ccccc1)NC(=O)[C@H](Cc1cc(C(F)(F)F)cc(C(F)(F)F)c1)NC(=O)[C@H](Cc1ccccc1)N=[N+]=[N-])C(=O)[C@@]1(C)CO1
Look at P and Q . Which one has the lower recorded Activity number? When you have decided, please share the label of that item. P
(P: 4.6%, Q: 78%)

[1] CC(C)C[C@H](NC(=O)[C@H](Cc1cc(C(F)(F)F)cc(C(F)(F)F)c1)NC(=O)[C@H](Cc1ccccc1)NC(=O)[C@H](Cc1ccccc1)N=[N+]=[N-])C(=O)[C@@]1(C)CO1
[2] CC(C)C[C@H](NC(=O)[C@H](Cc1c(F)c(F)c(F)c(F)c1F)NC(=O)[C@H](Cc1c(F)c(F)c(F)c(F)c1F)NC(=O)[C@H](Cc1ccccc1)N=[N+]=[N-])C(=O)[C@@]1(C)CO1
// compare: 1 vs 2 , metric Activity, want the smaller Label of pick, please. 1
(1: 45%, 2: 94.9%)
